This collection of values is drawn from ChEMBL document CHEMBL4831544.

assayProcedure: Half life in rat at 10 mg/kg, po
Assay type: ADME, organism-based
protocolConditions: in vivo
Label Condition met when half-life is strictly below 2 h; at or above that, label Condition not met.

Here's an entry: `CCN(C(=O)C1CCCC1)c1cc(-c2ccc(CN3CCOCC3)cc2)cc(C(=O)NCc2c(C)cc(C)[nH]c2=O)c1C` . Is its half-life below 2 h?
Condition met

Here's an entry: `CCN(C(=O)C1CC1)c1cc(-c2ccc(CN3CCOCC3)cc2)cc(C(=O)NCc2c(C)cc(C)[nH]c2=O)c1C` . Is its half-life below 2 h?
Condition met

Here's an entry: `CCN(C(=O)C1CC1)c1cc(-c2ccc(N3CCN(CC4CC4)CC3)nc2)cc(C(=O)NCc2c(C)cc(C)[nH]c2=O)c1C` . Is its half-life below 2 h?
Condition met

Here's an entry: `CCN1CCN(c2ccc(-c3cc(C(=O)NCc4c(C)cc(C)[nH]c4=O)c(C)c(N(CC)C(=O)C4CC4)c3)cc2)CC1` . Is its half-life below 2 h?
Condition not met

Here's an entry: `CCN(C(=O)C1CC1)c1cc(-c2ccc(N3CCN(CC4CC4)CC3)nc2C)cc(C(=O)NCc2c(C)cc(C)[nH]c2=O)c1C` . Is its half-life below 2 h?
Condition met
